# measuredOn: A (H3N2) neuraminidase (NA) (Influenza A virus (H3N2))
# Format: biochemical
# settings: read-out: IC50 Median
measuredAttribute: IC50 (nM)
Response body: numeric value in nM, unit text excluded.

Indicate the recorded IC50 value for this compound: "CCC(CC)[C@H](NC(C)=O)[C@@H]1[C@H](O)[C@@H](C(=O)O)C[C@H]1N=C(N)N" 0.08

====

# measuredOn: B/Victoria neuraminidase (NA)
# Assay type: biochemical, influenza B/Victoria lineage virus
# settings: read-out: IC50 Range
measuredAttribute: IC50

State its IC50 for this compound: "CCC(CC)[C@H](NC(C)=O)[C@@H]1[C@H](O)[C@@H](C(=O)O)C[C@H]1N=C(N)N" 0.14 to 0.88 nM
